- system-under-test: Prothrombin (Homo sapiens, UniProt P00734)
assay-endpoint: Ki (nM)

• N=C(N)C[C@H]1CC[C@@H](NC(=O)[C@@H]2CCCN2C(=O)[C@@H](Cc2ccccc2)NS(=O)(=O)Cc2ccccc2)CC1 = 0.27

The values you see were collected from ChEMBL document CHEMBL1132184.
